subject-of-test: T1, human vasopressin V1a receptor (hV1aR) (human, UniProt P37288 1-418)
T1 construct: vasopressin V1a receptor, human; in membrane preparations; source: HEK293, stably expressing; membrane preparations
assay-comment: radioligand binding; displacement of [3H]-OT or [3H]-VP from membrane preparations of HEK293 cells stably expressing the human receptor; dose-response curves in duplicates, at least three independent experiments; Ki >10 µM assigned where <25% of the radioligand was displaced at 10 µM
recorded-conditions: one partner purified
Positions of bridges follow the written chain, without caps; N, C: chain ends. Non-standard residues stand in square brackets, D forms with d. Groups on a side chain read outwards from the residue. No end group written: not given here. εdLys = D-Lys linked through its epsilon amine (k^ε); Cy3s = Cy3s fluorophore, as named; Cy5s = Cy5s fluorophore, as named; Orn = NCCC[C@H](N)C(=O)O; Mpa = O=C(O)CCS

| binder | Ki |
| --- | --- |
| [Mpa]YIQNCP[Orn](Cy5s)G (disulfide 1-6) [d(Orn)^8OT‐[Cy5s]^8] | 23 nM |
| [Mpa]YIQNCP[Orn]([εdLys-εdLys-Cy3s])G (disulfide 1-6) [d(Orn)^8OT‐[k^ε‐k^ε‐Cy3s]^8] | 3.3 nM |
| [Mpa]YIQNCP[Orn]G (disulfide 1-6; not fully specified (residue 8)) [d(Orn)^8OT‐[d‐PEG5‐k^ε‐AF488]^8] | 1430 nM |

Values were extracted from paper PMC12603982.
